System: PIK3CD (Human) | Read-out: IC50

>>> df
                         chemical_structure  observed
0  CCn1c(CN2CCN(CC(N)=O)C(C)(C)C2)nc2c(N3CCOCC3)nc(-c3cccc4[nH]ccc34)nc21  < 500 nM
1  Cn1c(CN2CCN(C(C)(C)C(N)=O)CC2)nc2c(N3CCOCC3)nc(-c3c(F)ccc4[nH]ccc34)nc21  < 500 nM
2  CCn1c(CN2CCC3(CC2)CNC(=O)C3)nc2c(N3CCOCC3)nc(-c3c(F)ccc4[nH]ccc34)nc21  < 500 nM
3  Cn1c(CN2CCN(C(C)(C)C(N)=O)CC2)nc2c(N3CCOCC3)nc(-c3cccc4[nH]ccc34)nc21  < 500 nM

Let us examine a further case.
Query string: What IC50 value was documented for this molecule, CCn1c(CN2CCC(N(C)S(C)(=O)=O)CC2)nc2c(N3CCOCC3)nc(-c3cccc4[nH]ccc34)nc21 ?
Result string: < 500 nM
